Where do the numbers come from? From PubChem BioAssay (NCI).

- Tested on: HCT-15 colon
- TEST DETAILS: NCI tumour cell line growth inhibition, 48 h
QUANTITY KIND: TGI

# annotated cases, reported TGI shown
                                   compound  target_entity  reported_measurement
0  O=C(c1ccccc1)N1C(=S)N(c2ccc([N+](=O)[O-])cc2)C(=Nc2ccccc2)C1=Nc1ccccc1   HCT-15 colon              > 100 µM
1  COc1ccc(/C=C\c2cc(OC)c(OC)c(OC)c2)cc1OCC(=O)Nc1nc2ccc(OC(F)(F)F)cc2s1   HCT-15 colon              > 100 µM

Lab note: next compound to report on.
Request: Check the records and state TGI for Cc1cc2c(cc1Br)C1(C)CCC(C)C1(C)O2 (stereo not drawn)
Result: > 100 µM
